# method: inhibitors of Chlamydomonas gravitaxis, primary screen, whole organism, Chlamydomonas reinhardtii, WT vs cilia-less mutant, absorbance, 96-well (AID 463189);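 note: 0% = wild type cc124 cells in DMSO and 100% = ciliumless bld1 mutant cells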
# measurement conditions: OD600 absorbance, 2 days, at 10 µM, stronger effect = higher value
Reported inhibition is given for each of the following compounds.
Write the answer as a number in %, unit excluded.

// field: inhibition; key: Cc1sc(-n2c(C)cc(/C=N/n3cnnc3)c2C)c(C#N)c1C ; value = 14

// field: inhibition; key: CCOC(=O)c1[nH]c2ccc(OC)cc2c1NC(=O)CCN1CCCC(C)C1 (stereo unspecified) ; value = 28.8

// field: inhibition; key: CCn1c(SCC(=O)NC2CCCCC2C)nnc1-c1ccc(OC)cc1 (stereo unspecified) ; value = -4.06

// field: inhibition; key: O=C(NCc1ccco1)c1ccc(=O)[nH]n1 ; value = 29.4

// field: inhibition; key: O=c1c(-c2ccc(Cl)cc2)[n+]([O-])c2ccccc2n1O ; value = 33.5

// field: inhibition; key: CCOc1ccccc1C(=O)NCCCCCC(=O)O ; value = 0.493

* * *

# method: inhibitors of Chlamydomonas gravitaxis, primary screen, whole organism, Chlamydomonas reinhardtii, WT vs cilia-less mutant, absorbance, 96-well (AID 463189);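 note: 0% = wild type cc124 cells in DMSO and 100% = ciliumless bld1 mutant cells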
# measurement conditions: OD600 absorbance, 2 days, at 10 µM, stronger effect = higher value
Reported inhibition is given for each of the following molecules.
Write the answer as a number in %, unit excluded.

Worked examples follow.
molecule	reported result
COc1ccc2c(c1OC)C(=O)OC2c1c(O)nc(SC)n(-c2ccccc2)c1=O (configuration not stated)	-18.2
FC(F)(F)c1cccc(N2CCc3cn[nH]c32)c1	-4.32
COCCOC(=O)c1c(C)oc2ccc(OC(=O)COc3c(F)c(F)c(F)c(F)c3F)cc12	-9.48
N#Cc1cc(Oc2cccc3cccnc23)c(-n2nnc3ccccc32)cc1C#N	25.9
CN(CCOC(=O)c1ccc2c(c1)OCCO2)Cc1ccccc1	69.7

// field: inhibition; key: COc1ccc(C2C(C#N)=C(C)NC3=C2C(=O)c2ccccc23)cc1 (configuration not stated) ; value = -2.6

// field: inhibition; key: CC(C)c1nc(NCCN2CCOCC2)c(C#N)c2c1COC(C)(C)C2 ; value = 71.3

* * *

Reported inhibition is given for each of the following compounds.
# method: inhibitors of TNFa-induced NFkB p65 translocation, primary screen, imaging, HUVEC, MLSMR starter and 10KST1 sets (AID 438);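 note: compound added about 3h40 before a 20 min TNFalpha stimulation; signal is the nuclear over cytoplasmic p65 intensity ratio per well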
# measurement conditions: HUVEC TNFa-induced p65 nuclear translocation; at 2 µM, stronger effect = higher value, 0% TNFa-plus-vehicle, 100% no-TNFa wells
Write the answer as a number in %, unit excluded.

Worked examples follow.
compound	reported result
Cc1nc2c(o1)CCc1ccccc1C2N1CCN(C)CC1 (stereo unspecified)	1.3
CCc1ccccc1NC(=O)CCc1nc(-c2ccc(C)cc2)no1	-1
Cc1sc(-n2c(C)ccc2C)c(C#N)c1C	-2
O=C(NCc1ccccc1)C1C(=O)N(Cc2ccccc2)C(=O)C1C1(O)CCCC1 (stereo unspecified)	-2.4
COc1ccc2c(c1OC)C(=O)N1c3ccccc3C(=O)N(c3ccccc3F)C21 (stereo unspecified)	-7.9
COc1ccc(C)cc1S(=O)(=O)N(CC(=O)O)c1ccccc1	8.1
NC(=O)/C(=N\O)c1ccccc1	5.9
COc1ccc(S(=O)(=O)N2CCCC(C(=O)NCc3ccccn3)C2)cc1 (stereo unspecified)	-2.2
CCCCCSc1nc(N2CCOCC2)c2c(c1C#N)CC(C)(C)OC2	-4.1
CC(C)N(C(=O)CSc1nnc(NC(=O)C2CCC2)s1)C(C)C	-0.6

// field: inhibition; key: CC(C)(C)n1ncc2c(=O)n(CC(=O)NCc3ccc(F)cc3)cnc21 ; value = 9.3

* * *

# method: DUSP6 inhibitors restoring Erk phosphorylation by chemical complementation, primary imaging in DUSP6-transfected HeLa (AID 609)
# measurement conditions: HeLa MKP-3 transfected, phospho-Erk imaging KS statistic; measured here: nuclear c-Myc green intensity z-score; at 10 µM; cells stimulated with TPA for 15 min
Reported z-score is given for each of the following molecules.
Keep the answer to the number alone.

molecule	z-score
Cc1sc(-n2c(C)cc(/C=N/n3cnnc3)c2C)c(C#N)c1C	-0.424
CC(O)CNc1nc2c(c(=O)n(C)c(=O)n2C)n1CCc1ccccc1 (stereo unspecified)	-1.99
COc1cc2c(cc1OC)C1(CCCC1)C(N)=C2C#N	-0.638

// field: z-score; key: CCN(CC)CCN1C(=O)C(O)=C(C(C)=O)C1c1ccc(OC)c(OC)c1 (stereo unspecified) ; value = -0.258

// field: z-score; key: CCCSc1nc(O)c(C2OC(=O)c3c2ccc(OC)c3OC)c(=O)n1C (stereo unspecified) ; value = -0.178

// field: z-score; key: Cc1nnc(N2CCCCC2)c2ccccc12 ; value = 0.768

* * *

# method: inhibitors of E-selectin induction by TNFa, primary screen, imaging, HUVEC, immunofluorescence, MLSMR starter and 10KST1 sets (AID 487);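 for nuclei count: 100% = median nuclei count of all wells on the same plate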
# measurement conditions: HUVEC TNFalpha-induced E-selectin immunofluorescence imaging, at 2 µM; measured here: cell number, toxicity
Reported nuclei count is given for each of the following compounds.
Write the answer as a number in %, unit excluded.

Worked examples follow.
compound	nuclei count, %
O=c1[nH]c(NCc2ccccc2)nc2c1CCCC2	101
N#C/C(C(=O)N1CCCCC1)=C1\Nc2ccccc2S1	117
CCOc1cc(S(=O)(=O)Nc2ccccn2)ccc1F	99.7
OCCN=C(c1ccccc1)C12CN3CN(CN(C3)C1)C2	150
NC(=O)/C(=N\O)c1ccccc1	113

// field: nuclei count; key: Cc1nc2ccccc2c2oc(C(=O)N3CCC(N4CCCCC4)CC3)cc12 ; value = 119

// field: nuclei count; key: CCOC(=O)NC(Nc1sc2c(c1C(=O)OC)CCN(C)C2)(C(F)(F)F)C(F)(F)F ; value = 89.6

// field: nuclei count; key: CC(C)N1C(=O)C2C(C(=O)NC3CCCCC3)C3C=CC2(O3)C1C(=O)NC1CCCC1 (stereo unspecified) ; value = 101

* * *

# method: inhibitors of E-selectin induction by TNFa, primary screen, imaging, HUVEC, immunofluorescence, MLSMR starter and 10KST1 sets (AID 487);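 for inhibition: signal is fraction of cell area covered by stained E-selectin grains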
# measurement conditions: HUVEC TNFalpha-induced E-selectin immunofluorescence imaging, at 2 µM; stronger effect = higher value
Reported inhibition is given for each of the following compounds.
Write the answer as a number in %, unit excluded.

compound	inhibition (%)
Cc1cc(C)n(-c2nc3c(c(=O)n(Cc4ccc(Cl)c(Cl)c4)c(=O)n3C)n2C)n1	-8.9
CCC(=O)Nc1nc2ccccc2n1Cc1ccccc1C	-158
O=C(NCCCNCc1ccccc1)/C(=N\O)c1ccccc1	-1
Cc1ccccc1OCC(O)CN (stereo not drawn)	14.2
CCOC(=O)C1=C(C)N=C2SC(C)C(=O)N2C1c1ccc(C(=O)OC)cc1 (stereo not drawn)	-69.3
Cc1ccccc1-n1nc(C)c2cc(C(=O)NCc3cccnc3)sc21	-51.5
Cn1nnnc1SCC(=O)Nc1ccccc1-c1ccccc1	-80.2
COc1ccc(/C(O)=C2/C(=O)C(=O)N(CCCN(C)C)C2c2ccc(C)o2)cc1Cl (stereo not drawn)	-108

// field: inhibition; key: CN(C)CCCOC(=O)c1ccc(Cl)cc1Cl ; value = -26.6

// field: inhibition; key: Clc1cccc(-c2nnc(-c3ccccc3)o2)c1 ; value = 4.7

// field: inhibition; key: CC1(C)Cc2c(C#N)c(OCC(=O)c3ccccc3)nc(-c3ccoc3)c2CO1 ; value = 14.2

// field: inhibition; key: CCOC(=O)c1cc(C)sc1N1C(=O)C2C3C=CC(C3)C2C1=O (stereo not drawn) ; value = -37

// field: inhibition; key: COc1ccc(OCC(=O)Nc2cccc3ncccc23)cc1 ; value = 23.2

* * *

# method: inhibitors of E-selectin induction by TNFa, primary screen, imaging, HUVEC, immunofluorescence, MLSMR starter and 10KST1 sets (AID 487);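 for inhibition: signal is fraction of cell area covered by stained E-selectin grains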
# measurement conditions: HUVEC TNFalpha-induced E-selectin immunofluorescence imaging, at 2 µM; stronger effect = higher value
Decision: inhibition compared against -80%; not below it gives Fulfilled, below it gives Not fulfilled.

These recorded examples may help you get a feel for the data.
molecule	discrete label
CN(C(=O)COc1cc(=O)n(C)c2ccccc12)c1ccc(Br)cc1	Not fulfilled
O=C(NCc1ccccc1)c1ccc(OC2CSC2)cc1	Fulfilled
C=C(C)CN(CC)CCC(=O)Nc1ccc(OC)cc1OC	Not fulfilled
CCC(NC(=O)NC1=NCCS1)(C(F)(F)F)C(F)(F)F	Fulfilled

Turning now to a further record.
Challenge: hey, is inhibition for this one >= -80%? C=C(C)CC1N(c2cccc(OC)c2)C(=O)[C@@H]2C(C(=O)O)[C@H]3C=C[C@@]12O3 (stereo partly specified)
Response given: Fulfilled

* * *

# method: inhibitors of mutant huntingtin aggregation, primary screen, imaging, exon1htt(103Q)mCFP cells, high-content imaging (AID 483);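 note: compound exposure lasted 3 days before fixation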
# measurement conditions: exon1htt(103Q)mCFP cell line, aggregate imaging, at 2 µM; stronger effect = higher value
measured quantity: inhibition of aggregation (%)
Write the answer as a number in %, unit excluded.

Worked examples follow.
molecule	inhibition of aggregation [%]
COc1cccc(CNc2nc3nc(C)c(Cl)c(C)n3n2)c1	-5
CC(CCc1ccccc1)NC(=O)C1CCCN(c2nnc(-n3cccc3)s2)C1 (configuration not stated)	-2.5
CC1CCN(c2nc3c(c(=O)n(C)c(=O)n3C)n2Cc2ccccc2)CC1	-14.9
COC(=O)CCn1nnc(-c2cccs2)n1	7.6
COc1ccc(C2=NOC(C(=O)Nc3cc(Br)ccc3O)C2)cc1OC (configuration not stated)	-2.8
Cc1nc(NCc2ccco2)c2oc3ccccc3c2n1	-4.3

// field: inhibition of aggregation; key: Cn1c(Cl)nc2ccccc21 ; value = 12.8

// field: inhibition of aggregation; key: O=C(Nc1cccc2ccccc12)N1CCN(c2ccccc2)CC1 ; value = 26.6

// field: inhibition of aggregation; key: Cc1cc2ccccn2c1C(=O)c1ccncc1 ; value = 11.7
